- Tested on: Staphylococcus aureus ATCC 25923

compound	readoutUnits	MIC
CC[C@H](C)[C@H](NC(=O)[C@H](C)NC(=O)CNC(=O)[C@H](Cc1ccccc1)NC(=O)[C@@H](NC(=O)[C@@H](N)CC(=O)O)[C@@H](C)CC)C(=O)N[C@@H](Cc1c[nH]c2ccccc12)C(=O)N1CCC[C@H]1C(=O)N[C@@H](CC(C)C)C(=O)N[C@@H](C)C(=O)N[C@@H](CC(C)C)C(=O)NCC(=O)N[C@@H](C)C(=O)N[C@@H](CC(C)C)C(=O)N[C@@H](CCCCN)C(=O)N[C@@H](CC(N)=O)C(=O)N[C@@H](CC(C)C)C(=O)N[C@H](C(=O)N[C@@H](CCCCN)C(N)=O)[C@@H](C)CC [DIFGAIWPLALGALKNLIK]	µM	8
